Experiment: Fluorescence titration of labeled ParM with ATP
Format: binding
Conditions: Table 2
measure_name: Kd ratio ATP/ADP
Answer with the value's number alone.

Asked: Entry under review: S9A: MDCC-ParM (His6/S9A/I27C/C287A) (conjugate, UniProt P11904 1-320, looked up, variant S9A I27C C287A, MDCC label; His6 tag) Plasmid segregation protein …: MLVFIDDGATNIKLQWQESDGTIKQHCSPNSFKREWAVSFGDKKVFNYTLNGEQYSFDPISPDAVVTTNIAWQYSDVNVVAVHHALLTSGLPVSEVDIVCTLPLTEYYDRNNQPNTENIERKKANFRKKITLNGGDTFTIKDVKVMPESIPAGYEVLQELDELDSLLIIDLGGTTLDISQVMGKLSGISKIYGDSSLGVSLVTSAVKDALSLARTKGSSYLADDIIIHRKDNNYLKQRINDENKISIVTEAMNEALRKLEQRVLNTLNEFSGYTHVMVIGGGAELIADAVKKHTQIRDERFFKTNNSQYDLVNGMYLIGN . Reported Kd ratio ATP/ADP?
Given back: 39
